tested on: angiotensin converting enzyme; experiment: Degradation in vitro by the angiotensin converting enzyme; format: in vitro ADME; settings: in the presence of the angiotensin converting enzyme
*1 amine or outer side, *2 acyl side, *3 side chain or, on linkers, in order; H or OH if unused. Where a SMILES comes first, the peptide text is derived from it. [ ]: non-standard residue; d: D form. X1 = O=C([C@@H]1C[C@H](Sc2ccccc2)CN1[*:1])[*:2]; pGlu = O=C1CC[C@@H](C(=O)O)N1
observed_property: degradation by / resistance towards cleavage by ACE

{"compound": "C[C@@H](C(=O)N[C@H](Cc1ccccc1)NC(=O)[C@H](CCCCN)NC(=O)[C@@H]1CCC(=O)N1)C(=O)N1C[C@@H](Sc2ccccc2)C[C@H]1C(=O)O [compound (a), Glp--Lys--gPhe--(S)mAla--Pro(S--Ph)--OH]", "reported_measurement": "complete resistance"}
{"compound": "C[C@H](C(=O)N[C@H](Cc1ccccc1)NC(=O)[C@H](CCCCN)NC(=O)[C@@H]1CCC(=O)N1)C(=O)N1C[C@@H](Sc2ccccc2)C[C@H]1C(=O)O [(b), Glp--Lys--gPhe--(R)mAla--Pro(S--Ph)--OH]", "reported_measurement": "complete resistance"}
{"compound": "C[C@@H](C(=O)N[C@H](Cc1ccccc1)NC(=O)[C@H](CCCCN)NC(=O)[C@@H]1CCC(=O)N1)C(=O)N1CCC[C@H]1C(=O)O [(f), Glp--Lys--gPhe--(S)mAla--Pro--OH]", "reported_measurement": "complete resistance"}
{"compound": "C[C@H](C(=O)N[C@H](Cc1ccccc1)NC(=O)[C@H](CCCCN)NC(=O)[C@@H]1CCC(=O)N1)C(=O)N1CCC[C@H]1C(=O)O [(g), Glp--Lys--gPhe--(R)mAla--Pro--OH]", "reported_measurement": "complete resistance"}
{"compound": "C[C@H](NC(=O)[C@H](Cc1ccccc1)NC(=O)[C@H](CCCCN)NC(=O)[C@@H]1CCC(=O)N1)C(=O)N1CCC[C@H]1C(=O)O [(c), Glp--Lys--Phe--Ala--Pro--OH] ([pGlu]KFAP-OH)", "reported_measurement": "quickly degraded"}

Q: Form field: degradation by / resistance towards cleavage by ACE recorded for C[C@H](NC(=O)[C@H](Cc1c[nH]c2ccccc12)NC(=O)[C@H](CCCCN)NC(=O)[C@@H]1CCC(=O)N1)C(=O)N1CCC[C@H]1C(=O)O [(d), Glp--Lys--Trp--Ala--Pro--OH] ([pGlu]KWAP-OH) with angiotensin converting enzyme (enter value)
Ans: quickly degraded

Q: How about this compound: C[C@H](NC(=O)[C@H](Cc1ccccc1)NC(=O)[C@H](CCCCN)NC(=O)[C@@H]1CCC(=O)N1)C(=O)N1C[C@@H](Sc2ccccc2)C[C@H]1C(=O)O [(e), Glp--Lys--Phe--Ala--Pro(S--Ph)--OH] ([pGlu]KFA[X1]-OH)
Ans: quickly degraded
